- Tested on: ICS
- assayExplanation: qHTS profiling for inhibitors of Plasmodium falciparum proliferation (AID 504749); further: nearly all actives have a fitted effect of over 60% in size
- conditionSet: P. falciparum in erythrocytes, SYBR Green DNA, 72 h; series mostly up to 28.7 µM
Results filed as inconclusive are left out. Activity calls are given as the source filed them. The call rests on the fitted dose curve; in most records, active means well fitted inhibition curve with a large enough effect; inconclusive means small, poorly fitted or top-dose-only effect; inactive means flat fitted curve, though single readings scatter.
Permitted responses: active, inactive

Cc1nc2sccn2c(=O)c1CCN1CCC(=C(c2ccc(F)cc2)c2ccc(F)cc2)CC1    active
Nc1nc(N)c2nc(-c3ccccc3)c(N)nc2n1    inactive
CC1=C(C)C(=O)C(CCCCC#CCCCC#CCO)=C(C)C1=O    active

-- ask So what was the verdict on `C[N+](C)(C)CCOC(N)=O` in this test?
-- reply inactive

-- ask So what was the verdict on NC(Cc1ccc(Cl)cc1)C(=O)O (configuration not stated) in this test?
-- reply inactive

-- ask So what was the verdict on COc1ccc(CCN(C)CCCC(C#N)(c2cc(OC)c(OC)c(OC)c2)C(C)C)cc1OC (configuration not stated) in this test?
-- reply active

-- ask So what was the verdict on `NC(=O)N1c2ccccc2C=Cc2ccccc21` in this test?
-- reply inactive

---

- Test system: MKL-1
- assayExplanation: qHTS assay to identify novel small-molecules to repurpose for Merkel cell carcinoma treatment (AID 1296009); further: nearly all actives have a fitted effect of over 60% in size
- conditionSet: MCC and control cell lines, CellTiter-Glo viability, 72 h; series mostly up to 46 µM
Records with an inconclusive call do not appear. Activity calls are given as the source filed them. Calls follow the shape of the dose curve; as a rule, active = well fitted inhibition curve with a large enough effect; inconclusive = small, poorly fitted or top-dose-only effect; inactive = flat fitted curve, though single readings scatter.
Permitted responses: label 1 for active, label 0 for inactive

Reference set, count: 3
c1ccc2c(c1)CCCC2C1=NCCN1 (stereo unspecified)    label 0
CN(C)CCOC(=O)COc1ccc(Cl)cc1    label 0
CC(N=C(NC#N)Nc1ccncc1)C(C)(C)C (stereo unspecified)    label 0

-- ask So what was the verdict on COC(=O)C1=C(C)NC(C)=C(C(=O)OC(C)(C)CN(C)CCC(c2ccccc2)c2ccccc2)C1c1cccc([N+](=O)[O-])c1 (stereo unspecified) in this test?
-- reply label 1

-- ask So what was the verdict on `CCN(CC)CCCN(c1ccccc1)C1Cc2ccccc2C1` in this test?
-- reply label 0

-- ask So what was the verdict on CNC1(C)C2CCC(C2)C1(C)C (stereo unspecified) in this test?
-- reply label 0

-- ask So what was the verdict on `CCN(CC)CCNC(=O)c1cc(S(C)(=O)=O)ccc1OC` in this test?
-- reply label 0

-- ask So what was the verdict on `Cc1ccc(S(=O)(=O)NC(=O)NN2CCCCCC2)cc1` in this test?
-- reply label 0

-- ask So what was the verdict on `CCCN1C[C@H](CSC)C[C@@H]2c3cccc4[nH]cc(c34)C[C@H]21` in this test?
-- reply label 0

-- ask So what was the verdict on `Cc1nnc(SCC2=C(C(=O)O)N3C(=O)[C@@H](NC(=O)Cn4cnnn4)[C@H]3SC2)s1` in this test?
-- reply label 0

-- ask So what was the verdict on `Cc1nc2ccccn2c(=O)c1CCN1CCC(C(=O)c2ccc(F)cc2)CC1` in this test?
-- reply label 0

-- ask So what was the verdict on NC1=NCC2c3ccccc3Cc3ccccc3N12 (stereo unspecified) in this test?
-- reply label 0

-- ask So what was the verdict on C=CCc1ccccc1OCC(O)CNC(C)C (stereo unspecified) in this test?
-- reply label 0

---

- studyTarget: Cytochrome P450 3A4 (Homo sapiens) (UniProt P08684)
- Sequence (P08684 whole entry, looked up): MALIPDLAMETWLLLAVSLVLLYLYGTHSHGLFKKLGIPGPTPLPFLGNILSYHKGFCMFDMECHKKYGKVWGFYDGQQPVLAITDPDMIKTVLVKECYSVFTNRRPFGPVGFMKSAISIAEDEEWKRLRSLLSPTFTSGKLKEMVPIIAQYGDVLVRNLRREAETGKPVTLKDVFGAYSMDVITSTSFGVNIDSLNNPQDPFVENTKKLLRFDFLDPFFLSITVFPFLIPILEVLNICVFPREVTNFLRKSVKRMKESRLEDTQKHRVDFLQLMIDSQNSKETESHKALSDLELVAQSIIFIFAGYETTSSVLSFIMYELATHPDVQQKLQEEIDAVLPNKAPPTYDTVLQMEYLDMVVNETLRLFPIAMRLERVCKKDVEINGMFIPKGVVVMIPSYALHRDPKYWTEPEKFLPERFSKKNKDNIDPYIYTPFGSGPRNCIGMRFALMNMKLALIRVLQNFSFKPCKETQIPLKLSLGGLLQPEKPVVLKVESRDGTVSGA
- assayExplanation: Cytochrome P450 family 3 subfamily A member 4 (CYP3A4) small molecule antagonists: luciferase qHTS assay (AID 1645841); further: nearly all actives have a fitted effect of over 45% in size
- conditionSet: P450-Glo CYP3A4 enzyme assay, luciferin luminescence; series mostly up to 57.4 µM
Results filed as inconclusive are left out. The source made the active and inactive calls. Calls come from the whole dose curve; as a rule, active = well fitted inhibition curve with a large enough effect in the repeat runs; inconclusive = weak or mixed curves; inactive = no such curve, though single readings can be large or run the other way.
property: outcome

CC(=O)Nc1nnc(S(N)(=O)=O)s1    inactive
O=C1NCN(c2ccccc2)C12CCN(CCCC(c1ccc(F)cc1)c1ccc(F)cc1)CC2    inactive
CN(C)[C@@H]1C(=O)C(C(N)=O)=C(O)[C@@]2(O)C(=O)C3=C(O)c4c(O)ccc(Cl)c4[C@@H](O)[C@H]3C[C@@H]12    inactive
CC(C(=O)O)c1ccc(CC2CCCC2=O)cc1 (centres undefined)    inactive

---

- Tested on: W2
- assayExplanation: qHTS profiling for inhibitors of Plasmodium falciparum proliferation (AID 504749); further: nearly all actives have a fitted effect of over 60% in size; further: potency means the concentration at half of the fitted maximal effect
- conditionSet: P. falciparum in erythrocytes, SYBR Green DNA, 72 h; series mostly up to 28.7 µM
Results filed as inconclusive are left out. Activity calls are given as the source filed them. The call rests on the fitted dose curve; in most records, active means well fitted inhibition curve with a large enough effect; inconclusive means small, poorly fitted or top-dose-only effect; inactive means flat fitted curve, though single readings scatter.
property: Potency

// worked examples, Potency included
Cc1nc2c([nH]1)c(=O)n(C)c(=O)n2Cc1ccco1    inactive
O=c1[nH]c(=O)n([C@H]2C[C@H](O)[C@@H](CO)O2)cc1Br    inactive
CC(=O)[C@]1(O)Cc2c(O)c3c(c(O)c2[C@@H](O[C@H]2C[C@H](N)[C@H](O)[C@H](C)O2)C1)C(=O)c1ccccc1C3=O    1690 nM (active)
NC1=NCC2c3ccccc3Cc3ccccc3N12 (stereo unspecified)    inactive
NC(N)=NC(=O)Cc1c(Cl)cccc1Cl    6750 nM (active)
O=C(CCCN1CCC(O)(c2cccc(C(F)(F)F)c2)CC1)c1ccc(F)cc1    2690 nM (active)
CC(C(=O)O)c1ccc(CC2CCCC2=O)cc1 (stereo unspecified)    inactive
CC(=O)Oc1cc(C(C)C)c(OCCN(C)C)cc1C    inactive
CNCCC(Oc1ccccc1OC)c1ccccc1 (stereo unspecified)    4260 nM (active)
CN=C(NC#N)NCCSCc1nc[nH]c1C    inactive

We now examine a further compound.
-- ask What measured Potency goes with `CCNC(=O)N1CCN(CCCC(c2ccc(F)cc2)c2ccc(F)cc2)CC1` ?
-- reply 953 nM (active)

---

- studyTarget: Protein phosphatase 1D (Homo sapiens)
- assayExplanation: RapidFire Mass Spectrometry qHTS Assay for Modulators of WT P53-Induced Phosphatase 1 (WIP1) (AID 1347424);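 further: amount of dephosphorylated VEPPL-S-QETFS peptide product formed by WIP1; plate controls were DMSO wells for no effect and GSK830371 inhibitor control at 10 µM for full effect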
- conditionSet: WIP1 dephosphorylation of phosphopeptide, RapidFire MS; series mostly up to 63 µM
Results filed as inconclusive are left out. Active and inactive are the calls of the source. Calls come from the whole dose curve; as a rule, active = well fitted inhibition curve with a large enough effect; inconclusive = small, poorly fitted or top-dose-only effect; inactive = no such curve, though single readings can be large or run the other way.
property: activity change, negative = inhibition

// worked examples, activity change, negative = inhibition included
COc1ccc2c(c1OC)C(=O)O[C@@H]2[C@H]1c2c(cc3c(c2OC)OCO3)CCN1C    inactive
CN(C)CC/C=C1\c2ccccc2COc2ccccc21    inactive
Cc1cc(C)c(/C=C2\C(=O)Nc3ccccc32)[nH]1    inactive
CCn1nc(C(=O)O)c(=O)c2cc3c(cc21)OCO3    inactive
C[C@]12C=CC(=O)C=C1CC[C@H]1[C@@H]3C[C@@H](O)[C@](O)(C(=O)CO)[C@@]3(C)C[C@H](O)[C@@]12F    inactive

We now examine a further compound.
-- ask Please tell me: activity change, negative = inhibition of `NCCCNCCSP(=O)(O)O` , system Protein phosphatase 1D (Homo sapiens)?
-- reply 0.628% [at 12.6 µM] (inactive)

---

Collected max response values appear next to each entry.
- studyTarget: Peroxisome proliferator-activated receptor alpha (Homo sapiens) (UniProt Q07869)
- Sequence (Q07869 whole entry, looked up): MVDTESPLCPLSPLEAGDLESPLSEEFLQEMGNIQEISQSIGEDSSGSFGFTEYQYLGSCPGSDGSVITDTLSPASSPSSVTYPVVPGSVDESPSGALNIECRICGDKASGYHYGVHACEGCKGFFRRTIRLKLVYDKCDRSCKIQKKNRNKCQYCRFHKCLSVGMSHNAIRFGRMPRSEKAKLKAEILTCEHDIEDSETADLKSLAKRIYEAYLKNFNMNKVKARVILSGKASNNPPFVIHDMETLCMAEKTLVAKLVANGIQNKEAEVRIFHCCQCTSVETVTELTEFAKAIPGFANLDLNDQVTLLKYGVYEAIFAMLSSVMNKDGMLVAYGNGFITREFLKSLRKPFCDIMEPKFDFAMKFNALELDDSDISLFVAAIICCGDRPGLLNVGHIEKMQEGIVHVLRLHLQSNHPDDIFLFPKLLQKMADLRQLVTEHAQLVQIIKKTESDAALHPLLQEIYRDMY
- assayExplanation: qHTS assay for small molecule agonists of the peroxisome proliferator-activated receptor alpha (PPARalpha) signaling pathway (AID 651778); further: % of control where 0% means no effect
- conditionSet: PathHunter PPARalpha complementation, chemiluminescence, 6 h; stronger effect = higher value
Please reply with the bare figure in % and do not write the unit itself.

// worked examples, max response included
C[C@]12C=CC(=O)C=C1CC[C@H]1[C@@H]3C[C@@H](O)[C@](O)(C(=O)CO)[C@@]3(C)C[C@H](O)[C@@]12F    4.65
CC(=O)[C@@]1(O)CC[C@H]2[C@@H]3CCC4=CC(=O)CC[C@]4(C)[C@H]3CC[C@@]21C    -2.31
C[C@]12CCC(=O)C=C1CC[C@@H]1[C@@H]2C(=O)C[C@@]2(C)[C@H]1CC[C@]2(O)C(=O)CO    -0.227

-- ask What measured max response goes with `COc1ccc(CN(CCN(C)C)c2ccccn2)cc1` ?
-- reply -5.33

-- ask What measured max response goes with `CN=C(NC#N)NCCSCc1nc[nH]c1C` ?
-- reply 0.401

---

Collected activity, negative = cell killing values appear next to each entry.
- assayExplanation: Drug repurposing screens with cells derived from glioblastoma tumor samples (AID 1345199); further: on the % scale 0 is the no-effect control and ±100 the full control effect; nearly all actives have a fitted effect of over 40% in size
- conditionSet: GBM patient neurospheres viability, ATP luminescence, 48 h; at 20 µM (top of the series); tumour line C
Inconclusive results are not listed.
Please reply with the bare figure in % and do not write the unit itself.

// worked examples, activity, negative = cell killing included
CN(C)CCCN1c2ccccc2Sc2ccccc21    -19.7
CNCCCN1c2ccccc2CCc2ccccc21    14.5
CC(=O)Oc1cc(C(C)C)c(OCCN(C)C)cc1C    -2.72
Cc1cccc(C)c1NC(=O)C(C)N (stereo not drawn)    6.4
C(=C\c1ccccc1)/CN1CCN(C(c2ccccc2)c2ccccc2)CC1    -1.05
C[C@@H](O)[C@H]1C(=O)N2C(C(=O)O)=C(SCCN=CN)C[C@H]12    -11.4

-- ask What measured activity, negative = cell killing goes with CCc1c(C)[nH]c2c1C(=O)C(CN1CCOCC1)CC2 (stereo not drawn) ?
-- reply -3.97

-- ask What measured activity, negative = cell killing goes with `CN1CCN(C2=Nc3ccccc3Oc3ccc(Cl)cc32)CC1` ?
-- reply -15.4
